B1: VENTX (parent)
chain: VFQHHQYLSPLERKRLAREMQLSE

variants of: B1; test: protein stability index of a GFP-peptide fusion (GPS, HEK-293T) (PSI 1-6); higher = more stable; conditions: c terminus: a fixed tail appended;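 note: lentivirally expressed fusions sorted by FACS into six bins by GFP to DsRed ratio, PSI derived from sequencing read proportions per bin multiplied by bin number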
For each record, write down the corresponding protein stability index.
Answers are plain numbers.

variant.description	attribute.measured	quantitative.result
L22A	protein stability index	2.72
V1S	protein stability index	3.1
K14L	protein stability index	2.19
M20Y	protein stability index	2.96
S9Q	protein stability index	3.25
L11V	protein stability index	2.53
M20S	protein stability index	2.62
E19I	protein stability index	1.86
E24G	protein stability index	2.3
H5S	protein stability index	2.63

Report protein stability index for each item below.
1. E19G
2. S23D
3. Q3T
4. R18M
5. P10L
6. L8F

Output:
1. 2.06
2. 2.66
3. 2.96
4. 2.21
5. 2.67
6. 2.62

Report protein stability index for each item below.
1. Q6S
2. Y7L

Output:
1. 2.3
2. 2.5

Report protein stability index for each item below.
1. F2S
2. Q21F
3. R13H
4. V1E

Output:
3.91
1.98
2.07
2.49
